Source: patent US6815214B2

target under test: CXCR2 (Homo sapiens)
Construct: host or cells: CHO cells
test description: CXCR2 radioligand binding assay with 125I labeled IL-8 (Panlabs)
condition details: read-out: IC50 (after II, CXCR2)
reported property: IC50 (µM)
Give your result in µM as a bare value.

Test item "COC(=O)C[C@H]1C(=O)N2C[C@@H](NC(=O)c3cnc4ccccc4c3)C[C@H]2C(=O)N1Cc1ccc(CC(=O)NCc2c(OC)cc(OC)cc2OC)cc1" ; CXCR2 (Homo sapiens); reported IC50 was 25

* * *

target under test: CXCR2 (Homo sapiens, UniProt P25025)
Construct: host or cells: CHO cells
Sequence (P25025 whole entry): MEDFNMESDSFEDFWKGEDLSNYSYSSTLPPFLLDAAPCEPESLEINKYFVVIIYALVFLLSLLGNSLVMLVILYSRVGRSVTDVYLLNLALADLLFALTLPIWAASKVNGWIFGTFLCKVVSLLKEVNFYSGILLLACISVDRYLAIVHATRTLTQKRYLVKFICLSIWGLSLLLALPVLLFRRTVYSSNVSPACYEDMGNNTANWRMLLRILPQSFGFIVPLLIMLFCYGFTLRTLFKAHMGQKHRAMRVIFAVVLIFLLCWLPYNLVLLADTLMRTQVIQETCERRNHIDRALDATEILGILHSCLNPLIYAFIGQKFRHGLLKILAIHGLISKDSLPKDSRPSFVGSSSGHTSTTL
test description: CXCR2 radioligand binding assay with 125I labeled IL-8 (Panlabs)
condition details: unit μm [sic]; read-out: IC50 (after II, CXCR2)
reported property: IC50 (µM)
Give your result in µM as a bare value.

"COc1cc(OC)c(CNC(=O)Cc2ccc(CN3C(=O)[C@@H]4C[C@H](NC(=O)OCC5c6ccccc6-c6ccccc65)CN4C(=O)[C@@H]3CC(=O)O)cc2)c(OC)c1" has a reported IC50 of 15
